Listed next: entries and their corresponding %Inh.
- Test system: FLT4
- experimental-context: concentration: 1 μM,replicates: in singlicate; n = 1;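 further: KINOMEscan kinase panel screen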

- molecule: "O=c1[nH]cc(-c2ccc(O)cc2)c2sc(-c3ccncc3)cc12"
  %Inh [%]: 1
- molecule: "c1ccc(Oc2ccc(Nc3ccnc4ccc(-c5ccccn5)cc34)cc2)cc1"
  %Inh [%]: 3
- molecule: "CCn1c(-c2nonc2N)nc2cncc(Br)c21"
  %Inh [%]: 19
- molecule: "Cn1cc(-c2cccc3c(N)c(C(N)=O)nnc23)cn1"
  %Inh [%]: 15
- molecule: "O=C(NCC1CC1)c1ccc(-c2cc(C(=O)NC3CC3)ccc2F)cc1"
  %Inh [%]: 0
- molecule: "NC(=O)c1ccc(-c2cc3ncnc(SCC(=O)O)c3s2)cc1"
  %Inh [%]: 0
- molecule: "CC(C(=O)NC1CCN(c2ccnc(Nc3ccc(F)cc3)n2)C1)c1ccc(Cl)cc1 (stereo not drawn)"
  %Inh [%]: 0
- molecule: "FC(F)(F)c1cc(Br)cc(Nc2nccc(-c3cnn4ncccc34)n2)c1"
  %Inh [%]: 6
- molecule: "COC(=O)c1cccc(NC(=O)NC2CCN(c3ccnc(Nc4cc(OC)c(OC)c(OC)c4)n3)C2)c1 (stereo not drawn)"
  %Inh [%]: 14
- molecule: "CCN1CCN(CCCC(=O)Nc2n[nH]c3nc(-c4ccc(O)cc4)c(Br)cc23)CC1"
  %Inh [%]: 0
- molecule: "N#Cc1cccc(C(=O)NC2CCN(c3ccnc(Nc4ccc(F)cc4)n3)C2)c1 (stereo not drawn)"
  %Inh [%]: 20
- molecule: "C[C@@H]1CCN(C(=O)N2CCCC2)C[C@@H]1N(C)c1ncnc2[nH]ccc12"
  %Inh [%]: 6
- molecule: "C[C@@H]1CNc2c(sc3ccc4nc(-c5ccc(O)cc5)ccc4c23)C(=O)N1"
  %Inh [%]: 0
- molecule: "Cc1ccc2c(-c3ccnc(Nc4ccc(C(F)(F)F)cc4)n3)cnn2n1"
  %Inh [%]: 0
- molecule: "CS(=O)c1ccc(-c2coc3ccc(-c4n[nH]c(=O)o4)cc23)cc1 (stereo not drawn)"
  %Inh [%]: 3
- molecule: "COc1cccc(OC)c1C(=O)Nc1cccc(-c2nn3ccccc3c2-c2ccnc(Nc3cccc(F)c3)n2)c1"
  %Inh [%]: 27
- molecule: "CN(c1ccc2c(c1)nc(NCc1ccc(F)cc1)n2C)c1ccnc(Nc2ccc(CS(C)(=O)=O)cc2)n1.Cl"
  %Inh [%]: 99.9
- molecule: "Cn1ccc2ncnc(Oc3ccc(NC(=O)Nc4ccnc(C(F)(F)F)c4)c(Cl)c3)c21"
  %Inh [%]: 97.4

###

- Tested on: MST1
- Construct: gene STK4
- experimental-context: concentration: 1 μM,replicates: in singlicate; n = 1
The label depends only on %Inh: class 1 if it is at least 2%, class 0 if it is smaller.

- molecule: "Cn1ccc2ncnc(Oc3ccc(NC(=O)Nc4cncc(C(F)(F)F)c4)c(Cl)c3)c21"
  assayed-target: "MST1"
  label: "class 0"
- molecule: "Cc1ccc(CC(=O)N2CCc3cc(-c4cn(C)c5ncnc(N)c45)ccc32)cc1 [GSK2634758]"
  assayed-target: "MST1"
  label: "class 1"
- molecule: "Cn1cc(-c2cccc3c(N)c(C(N)=O)nnc23)cn1"
  assayed-target: "MST1"
  label: "class 1"
- molecule: "CC(C)c1nc(-c2cccc(NS(=O)(=O)c3ccccc3)c2)c(-c2ccnc(Nc3ccc4c(c3)CN(C)CC4)n2)s1 [GSK1649598]"
  assayed-target: "MST1"
  label: "class 1"
- molecule: "COc1cc(Nc2nccc(N3CCC(NC(=O)c4cccc(C#N)c4)C3)n2)cc(OC)c1OC (centres unmarked) [GSK1379751]"
  assayed-target: "MST1"
  label: "class 0"
- molecule: "CSc1nccc(-c2c(-c3ccc(F)cc3)ncn2CCCN2CCOCC2)n1.Cl [SB-217146]"
  assayed-target: "MST1"
  label: "class 0"
- molecule: "Cc1ccc(Nc2ccnc(Nc3ccc4c(c3)CS(=O)(=O)C4)n2)cc1O.Cl [GW579362]"
  assayed-target: "MST1"
  label: "class 1"

###

Reported values of %Inh for individual entries
- Tested on: GRK1
- experimental-context: concentration: 1 μM,replicates: in singlicate; n = 1

- molecule: "COc1cccc(OC)c1C(=O)Nc1cccc(-c2nn3ccccc3c2-c2ccnc(Nc3cccc(F)c3)n2)c1"
  %Inh (%): 0
- molecule: "Nc1nccc(-c2ccc3c(N)n[nH]c3c2)n1"
  %Inh (%): 100
- molecule: "Cc1ccn2nc(-c3ccc(F)cc3)c(-c3ccncc3)c2c1.Cl"
  %Inh (%): 0
- molecule: "NC(=O)Nc1sc(-c2ccc(F)cc2)cc1C(N)=O"
  %Inh (%): 12
- molecule: "CCCC(=O)Nc1n[nH]c2ncccc12"
  %Inh (%): 13
- molecule: "COC(=O)c1cccc(NC(=O)NC2CCN(c3ccnc(Nc4cc(OC)c(OC)c(OC)c4)n3)C2)c1 (stereo not drawn)"
  %Inh (%): 13
- molecule: "CSc1nccc(-c2c(-c3ccc(F)cc3)ncn2CCCN2CCOCC2)n1.Cl"
  %Inh (%): 45
- molecule: "C[C@@H]1CNc2c(sc3ccc4nc(-c5ccncc5)ccc4c23)C(=O)N1"
  %Inh (%): 34
- molecule: "Cn1ccc2ncnc(Oc3ccc(NC(=O)Nc4ccnc(C(F)(F)F)c4)c(Cl)c3)c21"
  %Inh (%): 0
- molecule: "COc1cc(Nc2nccc(N3CCC(NC(=O)c4cccc(C#N)c4)C3)n2)cc(OC)c1OC (stereo not drawn)"
  %Inh (%): 0
- molecule: "O=C(Nc1ccccc1)c1cccc(Oc2ccc3nccn3n2)c1"
  %Inh (%): 0
- molecule: "CS(=O)(=O)Nc1ccc(-c2ccnc3[nH]ccc23)cc1"
  %Inh (%): 18
- molecule: "O=C(Nc1cccc(Oc2ccc3nccn3n2)c1)Nc1cccc(C(F)(F)F)c1"
  %Inh (%): 0
- molecule: "O=C(Nc1ccc(Oc2ccc3nc(NC(=O)C4CC4)cn3n2)c(F)c1)c1cccn(-c2ccccc2)c1=O"
  %Inh (%): 0
- molecule: "CCn1c(-c2nonc2N)nc2cncc(Br)c21"
  %Inh (%): 32
- molecule: "Cc1cccc(-c2nc(Nc3ccncc3)c3sccc3n2)n1"
  %Inh (%): 0
- molecule: "CS(=O)(=O)c1cccc(CNc2nc(Nc3ccc4c(c3)[C@@H]3C[C@@H]4CNC3=O)ncc2C(F)(F)F)c1"
  %Inh (%): 28
- molecule: "N#Cc1cccc(C(=O)NC2CCN(c3ccnc(Nc4ccc(F)cc4)n3)C2)c1 (stereo not drawn)"
  %Inh (%): 0

###

Below is a list of entries, each paired with its recorded %Inh value.
- System: EPHA3
- experimental-context: concentration: 1 μM,replicates: in singlicate; n = 1

- compound: "c1ccc(Oc2ccc(Nc3ccnc4ccc(-c5ccccn5)cc34)cc2)cc1"
  assayed-target: "EPHA3"
  %Inh / %: 0
- compound: "CCn1c(-c2nonc2N)nc2cncc(Br)c21"
  assayed-target: "EPHA3"
  %Inh / %: 29
- compound: "Cn1ccc2ncnc(Oc3ccc(NC(=O)Nc4cnn(C(C)(C)C)c4)c(Cl)c3)c21"
  assayed-target: "EPHA3"
  %Inh / %: 54
- compound: "O=C(Nc1ccc(Oc2ccc3nc(NC(=O)C4CC4)cn3n2)c(F)c1)c1cccn(-c2ccccc2)c1=O"
  assayed-target: "EPHA3"
  %Inh / %: 0
- compound: "Cn1ccc2ncnc(Oc3ccc(NC(=O)Nc4ccnc(C(F)(F)F)c4)c(Cl)c3)c21"
  assayed-target: "EPHA3"
  %Inh / %: 10
- compound: "COc1cc2ncn(-c3cc(OCC4CCCCC4)c(C(N)=O)s3)c2cc1OC"
  assayed-target: "EPHA3"
  %Inh / %: 14
- compound: "O=C(Nc1n[nH]c2cc(-c3ccco3)ccc12)C1CC1"
  assayed-target: "EPHA3"
  %Inh / %: 19
- compound: "CC(C(=O)NC1CCN(c2ccnc(Nc3ccc(F)cc3)n2)C1)c1ccc(Cl)cc1 (stereo not shown)"
  assayed-target: "EPHA3"
  %Inh / %: 0
- compound: "CN(c1ccccc1CNc1nc(Nc2ccc3c(c2)CC(=O)N3)ncc1C(F)(F)F)S(C)(=O)=O"
  assayed-target: "EPHA3"
  %Inh / %: 0
- compound: "CS(=O)(=O)Nc1ccc(-c2ccnc3[nH]ccc23)cc1"
  assayed-target: "EPHA3"
  %Inh / %: 0
- compound: "O=C(NCC1CC1)c1ccc(-c2cc(C(=O)NC3CC3)ccc2F)cc1"
  assayed-target: "EPHA3"
  %Inh / %: 10
- compound: "Cc1ccc(CC(=O)N2CCc3cc(-c4cn(C)c5ncnc(N)c45)ccc32)cc1"
  assayed-target: "EPHA3"
  %Inh / %: 0
- compound: "CCNCC(Cc1ccccc1)NC(=O)c1cc(Br)c(-c2ccnc3[nH]ccc23)s1.Cl.Cl (stereo not shown)"
  assayed-target: "EPHA3"
  %Inh / %: 45
- compound: "Cc1cccc2c(-c3ccncc3)c(-c3ccc(F)cc3)nn12.Cl"
  assayed-target: "EPHA3"
  %Inh / %: 0
- compound: "C[C@@H](Oc1cc(-n2cnc3ccc(-c4ccncc4)cc32)sc1C(N)=O)c1ccccc1Cl"
  assayed-target: "EPHA3"
  %Inh / %: 0
- compound: "CC(=O)Nc1ccc(-c2cc3ncnc(SCC(=O)O)c3s2)cc1"
  assayed-target: "EPHA3"
  %Inh / %: 0
- compound: "COc1ccc(Nc2nccc(N3CCC(NC(=O)c4cccc(C#N)c4)C3)n2)cc1 (stereo not shown)"
  assayed-target: "EPHA3"
  %Inh / %: 0
- compound: "O=C(NOCC1CC1)c1cc(Br)c(F)c(F)c1Nc1ccc(I)cc1Cl"
  assayed-target: "EPHA3"
  %Inh / %: 0
- compound: "CNC(=O)c1ccccc1Nc1nc(Nc2cccc(CS(C)(=O)=O)c2)ncc1C.O=CO"
  assayed-target: "EPHA3"
  %Inh / %: 91.8
